Experiment: in vitro
Details: human, CC50 HepG2+Glu
Endpoint Label: CC50 at 72 h (µM)
Entry rule: numbers only, all in µM.

Example cases with answers are listed next.
c1ccc(CCCNc2ncnc3ccccc23)cc1 [18e] | 10.9
Cc1nc(NCCc2ccc(Cl)cc2)c2cc(I)ccc2n1 [11d] | 4.2
Cc1nc(NCCc2ccc(OC(F)(F)F)cc2)c2cc(I)ccc2n1 [13d] | 3.4
Cc1nc(NCCCc2ccccc2)c2ccccc2n1 [18a] | 7.7
COc1ccc2nc(C)nc(NCCCc3ccccc3)c2c1 [18b] | 13.9

We next turn to a different compound, shown below.
## Input Query: CC50 at 72 h; subject: Cc1nc(NCCc2ccccc2)c2cc(I)ccc2n1
## Output 10.9

----------
Experiment: Microsomal stability, human liver microsomes (HLM)
Format: in vitro ADME
Details: both sexes, human, microsomes, pH 7.4
Endpoint Label: remaining at 0.5 h, 6 μM (%)
Entry rule: numbers only, all in %.

## Input Query: remaining at 0.5 h, 6 μM; subject: Cc1nc(NCCCc2ccccc2)c2cc(Br)ccc2n1 [18c]
## Output 6

----------
Experiment: in vitro
Conditions: human, CC50 HepG2+Gal
Endpoint Label: CC50 at 72 h (nM)
Entry rule: numbers only, all in nM.

CCc1ccc(CCNc2nc(C)nc3ccc(Br)cc23)cc1 [16c] | 1600
Cc1nc(NCCc2ccc(OC(F)(F)F)cc2)c2cc(Br)ccc2n1 [13c] | 1000
COc1ccc(CCNc2nc(C)nc3ccc(I)cc23)cc1 [10d] | 6400

## Input Query: CC50 at 72 h; subject: c1ccc(CCCNc2ncnc3ccccc23)cc1 [18e]
## Output 2500

----------
Test: in vitro
Details: human, CC50 HepG2+Glu
// NB: equality with 7 µM counts as 0.0; only CC50 at 72 h strictly below is 1.0

Cc1nc(NCCc2ccc(OC(F)(F)F)cc2)c2cc(Br)ccc2n1 [13c] | 1.0
Cc1nc(NCCc2ccc3ccccc3c2)c2cc(Br)ccc2n1 [17c] | 1.0
Cc1nc(NCCCc2ccccc2)c2cc(Br)ccc2n1 [18c] | 0.0
CCc1ccc(CCNc2nc(C)nc3ccc(I)cc23)cc1 [16d] | 0.0
Cc1nc(NCCCc2ccccc2)c2cc(I)ccc2n1 [18d] | 0.0
CCc1ccc(CCNc2nc(C)nc3ccc(Br)cc23)cc1 [16c] | 1.0

## Input Bench note: check whether COc1ccc(CCNc2nc(C)nc3ccc(I)cc23)cc1 [10d] shows CC50 at 72 h below 7 µM
## Output 0.0

## Input Bench note: check whether Cc1ccc(CCNc2nc(C)nc3ccc(I)cc23)cc1 [15d] shows CC50 at 72 h below 7 µM
## Output 0.0
